Assignment: determine reported IC50 for the given compounds.
Target: NLRP3 inflammasome (Homo sapiens, UniProt Q96P20)
Construct: endogenous in cells
Sequence (Q96P20 whole entry): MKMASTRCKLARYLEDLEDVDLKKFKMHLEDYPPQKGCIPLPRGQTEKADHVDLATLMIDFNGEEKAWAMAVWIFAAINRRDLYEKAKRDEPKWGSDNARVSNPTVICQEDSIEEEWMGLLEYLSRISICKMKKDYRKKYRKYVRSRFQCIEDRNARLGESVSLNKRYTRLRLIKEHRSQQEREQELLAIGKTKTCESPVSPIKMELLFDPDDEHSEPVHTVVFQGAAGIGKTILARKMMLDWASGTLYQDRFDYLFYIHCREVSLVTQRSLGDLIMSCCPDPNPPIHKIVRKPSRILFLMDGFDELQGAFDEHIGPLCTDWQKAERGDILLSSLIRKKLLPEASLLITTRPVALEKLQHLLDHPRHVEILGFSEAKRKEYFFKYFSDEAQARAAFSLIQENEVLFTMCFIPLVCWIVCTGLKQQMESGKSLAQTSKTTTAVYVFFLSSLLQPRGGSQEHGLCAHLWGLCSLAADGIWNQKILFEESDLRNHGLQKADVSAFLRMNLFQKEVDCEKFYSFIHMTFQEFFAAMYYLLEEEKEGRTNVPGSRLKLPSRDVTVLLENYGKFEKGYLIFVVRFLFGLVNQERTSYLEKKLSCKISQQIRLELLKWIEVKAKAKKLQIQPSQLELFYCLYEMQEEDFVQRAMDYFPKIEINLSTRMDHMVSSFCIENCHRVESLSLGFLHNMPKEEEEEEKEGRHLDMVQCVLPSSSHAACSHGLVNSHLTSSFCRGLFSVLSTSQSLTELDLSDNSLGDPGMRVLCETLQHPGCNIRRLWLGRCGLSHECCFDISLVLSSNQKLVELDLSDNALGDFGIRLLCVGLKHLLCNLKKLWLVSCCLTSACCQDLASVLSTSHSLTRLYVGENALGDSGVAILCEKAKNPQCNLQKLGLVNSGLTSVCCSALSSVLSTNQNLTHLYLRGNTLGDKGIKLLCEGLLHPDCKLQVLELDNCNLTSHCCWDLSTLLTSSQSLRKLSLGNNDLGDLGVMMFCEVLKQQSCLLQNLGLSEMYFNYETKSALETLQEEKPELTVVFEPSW
Assay: IL-1β secretion assay (NLRP3 IC50) in LPS-primed, nigericin-activated THP-1 cells, HTRF
Details: monocytic THP-1 cells; LPS 10 ng/mL 3 h priming, then compound + nigericin 10 μM 2 h; relative IC50, 10 concentrations, geometric mean
Respond numerically; units are nM and should not be typed.

IC50 value, target or system NLRP3 inflammasome (Homo sapiens, UniProt Q96P20), for OC[C@@H]1CN(c2ccc(-c3c(O)cccc3C(F)(F)F)nn2)CCO1 : 132

IC50 value, target or system NLRP3 inflammasome (Homo sapiens, UniProt Q96P20), for Cc1ccc(-c2nnc(N3CCO[C@H]4CCN(C)C[C@H]43)cc2C(F)F)c(O)c1 : 1510

IC50 value, target or system NLRP3 inflammasome (Homo sapiens, UniProt Q96P20), for Cc1cc(Cl)cc(O)c1-c1ccc(N2CCO[C@H]3CCNC[C@H]32)nn1 (racemic) [Example 221] : 18

IC50 value, target or system NLRP3 inflammasome (Homo sapiens, UniProt Q96P20), for COC[C@@H]1CCCN1c1ccc(-c2c(C)cc(C(F)(F)F)cc2O)nn1 : 406
